Test: Half life in dog at 3 mg/kg, iv
Format: ADME, organism-based, Canis lupus familiaris
Parameters: dose 3 mg/kg, route intravenous
Conditions: in vivo

- SMILES REPRESENTATION: "CCc1ccc2c(c1)c(-c1ccc[nH]c1=O)c(C(=O)O)n2Cc1cc([N+](=O)[O-])ccc1F"
  half-life: "1.2 h"

* * *

Assay: Half life in monkey at 3 mg/kg, iv
Assay type: ADME, organism-based, Macaca mulatta
Parameters: dose 3 mg/kg, route intravenous
Details: rhesus monkey, in vivo
MEASURED ENDPOINT: half-life

- SMILES REPRESENTATION: "CCc1ccc2c(c1)c(-c1ccc[nH]c1=O)c(C(=O)O)n2Cc1cc([N+](=O)[O-])ccc1F"
  MEASURED ENDPOINT: "half-life"
  MEAS VALUE: "1.3 h"

* * *

Assay: Clearance in dog at 3 mg/kg
Type: ADME, organism-based, Canis lupus familiaris
Parameters: dose 3 mg/kg
Conditions: in vivo
MEASURED ENDPOINT: clearance (mL/min/kg)

- SMILES REPRESENTATION: "CCc1ccc2c(c1)c(-c1ccc[nH]c1=O)c(C(=O)O)n2Cc1cc([N+](=O)[O-])ccc1F"
  MEASURED ENDPOINT: "clearance"
  MEAS VALUE: 10

* * *

Assay: Half life in rat at 10 mg/kg, iv
Type: ADME, organism-based
Parameters: dose 10 mg/kg, route intravenous
Details: in vivo
MEASURED ENDPOINT: half-life

- SMILES REPRESENTATION: "CCc1ccc2c(c1)c(-c1ccc[nH]c1=O)c(C(=O)O)n2Cc1cc([N+](=O)[O-])ccc1F"
  MEAS VALUE: "8.2 h"

* * *

Assay: Oral bioavailability in monkey at 3 mg/kg
Format: ADME, organism-based, Macaca mulatta
Details: rhesus monkey, in vivo

- SMILES REPRESENTATION: "CCc1ccc2c(c1)c(-c1ccc[nH]c1=O)c(C(=O)O)n2Cc1cc([N+](=O)[O-])ccc1F"
  bioavailability [%]: 30

* * *

System: Hepatitis C virus
Assay: Antiviral activity against HCV by cell based replicon assay
Assay type: functional, organism-based, Hepacivirus hominis
pEC50: −log10 of the molar value.
YES means recorded pEC50 is 8 or above; NO means it is below 8.

- COMPOUND: "O=C(NS(=O)(=O)C1CC1)c1c(-c2ccc[nH]c2=O)c2cc(Cl)ccc2n1Cc1cc([N+](=O)[O-])ccc1F"
  ASSIGNED LABEL: "YES"
- COMPOUND: "Cc1ccc2c(c1)c(-c1ccc(C)[nH]c1=O)c(C(=O)O)n2Cc1cc([N+](=O)[O-])ccc1F"
  ASSIGNED LABEL: "NO"
- COMPOUND: "CCc1ccc2c(c1)c(-c1ccc[nH]c1=O)c(C(=O)NS(=O)(=O)C1CC1)n2Cc1cc([N+](=O)[O-])ccc1F"
  ASSIGNED LABEL: "YES"
- COMPOUND: "Cc1ccc2c(c1)c(-c1ccc[nH]c1=O)c(C(=O)NS(=O)(=O)C1CC1)n2Cc1ccccc1F"
  ASSIGNED LABEL: "NO"
- COMPOUND: "Cc1ccc2c(c1)c(-c1ccc[nH]c1=O)c(C(=O)O)n2Cc1cc([N+](=O)[O-])ccc1F"
  ASSIGNED LABEL: "YES"
- COMPOUND: "Cc1ccc2c(c1)c(-c1ccc[nH]c1=O)c(C(=O)NS(=O)(=O)C1CC1)n2Cc1ccnc(N)c1"
  ASSIGNED LABEL: "NO"
- COMPOUND: "CCc1ccc2c(c1)c(-c1ccc[nH]c1=O)c(C(=O)NS(=O)(=O)C1CC1)n2Cc1cc(S(N)(=O)=O)c(Cl)cc1Cl"
  ASSIGNED LABEL: "NO"
- COMPOUND: "Cc1ccc2c(c1)c(-c1ccc[nH]c1=O)c(C(=O)N[S+]([O-])C(C)C)n2Cc1cc([N+](=O)[O-])ccc1F (stereo unspecified)"
  ASSIGNED LABEL: "YES"
- COMPOUND: "Cc1ccc2c(c1)c(-c1ccc[nH]c1=O)c(C(=O)NS(=O)(=O)C1CC1)n2Cc1cccc(C)c1F"
  ASSIGNED LABEL: "NO"
- COMPOUND: "Cc1ccc2c(c1)c(-c1ccc[nH]c1=O)c(C(=O)NS(=O)(=O)C1CC1)n2Cc1cc([N+](=O)[O-])ccc1F"
  ASSIGNED LABEL: "YES"
- COMPOUND: "Cc1ccc2c(c1)c(-c1ccc[nH]c1=O)c(C(=O)NS(=O)(=O)C1CC1)n2Cc1cc(C(N)=O)ccc1F"
  ASSIGNED LABEL: "NO"
- COMPOUND: "Cc1ccc2c(c1)c(-c1ccc[nH]c1=O)c(C(=O)NS(=O)(=O)C1CC1)n2Cc1cc(S(C)(=O)=O)cc(C#N)c1F"
  ASSIGNED LABEL: "YES"

* * *

Each record here notes measured EC50.
System: Hepatitis C virus
Test: Antiviral activity against HCV by cell based replicon assay
Type: functional, organism-based, Hepacivirus hominis
MEASURED ENDPOINT: EC50

- SMILES REPRESENTATION: "Cc1ccc2c(c1)c(-c1ccc[nH]c1=O)c(C(=O)NS(=O)(=O)C1CC1)n2Cc1c(F)c(F)cc(C(N)=O)c1F"
  MEAS VALUE: "3300 nM"
- SMILES REPRESENTATION: "Cc1cc2c(-c3ccc[nH]c3=O)c(C(=O)NS(=O)(=O)C3CC3)n(Cc3cc([N+](=O)[O-])ccc3F)c2cc1F"
  MEAS VALUE: "4 nM"
- SMILES REPRESENTATION: "Cc1ccc2c(c1)c(-c1ccc[nH]c1=O)c(C(=O)NS(=O)(=O)C1CC1)n2Cc1cc(S(C)(=O)=O)ccc1F"
  MEAS VALUE: "580 nM"
- SMILES REPRESENTATION: "Cc1ccc2c(c1)c(-c1ccc[nH]c1=O)c(C(=O)NS(=O)(=O)C1CC1)n2Cc1cc(C#N)ccc1F"
  MEAS VALUE: "220 nM"

* * *

Assay: AUC in dog at 3 mg/kg, po
Format: ADME, organism-based, Canis lupus familiaris
Set-up: dose 3 mg/kg, route oral
Details: plasma

- SMILES REPRESENTATION: "CCc1ccc2c(c1)c(-c1ccc[nH]c1=O)c(C(=O)O)n2Cc1cc([N+](=O)[O-])ccc1F"
  AUC: "11 µM·h"

* * *

System: Hepatitis C virus
Experiment: Antiviral activity against HCV by cell based replicon assay
Assay type: functional, organism-based, Hepacivirus hominis
pEC50: −log10 of the molar value.
MEASURED ENDPOINT: pEC50

- COMPOUND: "Cc1ccc2c(c1)c(-c1ccc[nH]c1=O)c(C(=O)NS(=O)(=O)C1CC1)n2Cc1cc([N+](=O)[O-])ccc1Cl"
  EXPERIMENTAL SYSTEM: "Hepatitis C virus"
  MEAS VALUE: 7.80
- COMPOUND: "Cc1ccc2c(c1)c(-c1ccc[nH]c1=O)c(C(=O)NS(=O)(=O)C1CC1)n2Cc1c(F)c(F)cc(S(C)(=O)=O)c1F"
  EXPERIMENTAL SYSTEM: "Hepatitis C virus"
  MEAS VALUE: 6.57
- COMPOUND: "Cc1ccc2c(c1)c(-c1ccc[nH]c1=O)c(C(=O)NS(=O)(=O)C1CC1)n2Cc1cc(S(N)(=O)=O)ccc1F"
  EXPERIMENTAL SYSTEM: "Hepatitis C virus"
  MEAS VALUE: 6.26
- COMPOUND: "CCc1ccc2c(c1)c(-c1ccc[nH]c1=O)c(C(=O)NS(=O)(=O)C1CC1)n2Cc1cc(S(C)(=O)=O)c(Cl)cc1F"
  EXPERIMENTAL SYSTEM: "Hepatitis C virus"
  MEAS VALUE: 7.22
- COMPOUND: "Cc1ccc2c(c1)c(-c1ccc(C)[nH]c1=O)c(C(=O)NS(C)(=O)=O)n2Cc1cc([N+](=O)[O-])ccc1F"
  EXPERIMENTAL SYSTEM: "Hepatitis C virus"
  MEAS VALUE: 8.10
- COMPOUND: "Cc1ccc2c(c1)c(-c1ccc[nH]c1=O)c(C(=O)NS(=O)(=O)C1CC1)n2Cc1cc([S+]([O-])C(F)(F)F)ccc1Cl (centres undefined)"
  EXPERIMENTAL SYSTEM: "Hepatitis C virus"
  MEAS VALUE: 5.47
- COMPOUND: "CCc1ccc2c(c1)c(-c1ccc[nH]c1=O)c(C(=O)NS(=O)(=O)C1CC1)n2Cc1cc(S(C)(=O)=O)c(C#N)cc1F"
  EXPERIMENTAL SYSTEM: "Hepatitis C virus"
  MEAS VALUE: 8.52
- COMPOUND: "Cc1ccc2c(c1)c(-c1ccc[nH]c1=O)c(C(=O)NS(=O)(=O)C(C)C)n2Cc1cc([N+](=O)[O-])ccc1F"
  EXPERIMENTAL SYSTEM: "Hepatitis C virus"
  MEAS VALUE: 8.52
- COMPOUND: "CCc1ccc2c(c1)c(-c1ccc[nH]c1=O)c(C(=O)O)n2Cc1cc([N+](=O)[O-])ccc1F"
  EXPERIMENTAL SYSTEM: "Hepatitis C virus"
  MEAS VALUE: 9.00

These measurements were taken from ChEMBL document CHEMBL2040828.
